This listing pairs molecules with measured Dmax (%) BaF3-LTC.
Molecular target: EGFR L858R/T790M/C797S (BaF3-LTC cells) (Homo sapiens, UniProt P00533, C797S/L858R/T790M)
Construct: expressed in transfected cells; host or cells: BaF3
Sequence (P00533 25-1210 T790M/C797S/L858R): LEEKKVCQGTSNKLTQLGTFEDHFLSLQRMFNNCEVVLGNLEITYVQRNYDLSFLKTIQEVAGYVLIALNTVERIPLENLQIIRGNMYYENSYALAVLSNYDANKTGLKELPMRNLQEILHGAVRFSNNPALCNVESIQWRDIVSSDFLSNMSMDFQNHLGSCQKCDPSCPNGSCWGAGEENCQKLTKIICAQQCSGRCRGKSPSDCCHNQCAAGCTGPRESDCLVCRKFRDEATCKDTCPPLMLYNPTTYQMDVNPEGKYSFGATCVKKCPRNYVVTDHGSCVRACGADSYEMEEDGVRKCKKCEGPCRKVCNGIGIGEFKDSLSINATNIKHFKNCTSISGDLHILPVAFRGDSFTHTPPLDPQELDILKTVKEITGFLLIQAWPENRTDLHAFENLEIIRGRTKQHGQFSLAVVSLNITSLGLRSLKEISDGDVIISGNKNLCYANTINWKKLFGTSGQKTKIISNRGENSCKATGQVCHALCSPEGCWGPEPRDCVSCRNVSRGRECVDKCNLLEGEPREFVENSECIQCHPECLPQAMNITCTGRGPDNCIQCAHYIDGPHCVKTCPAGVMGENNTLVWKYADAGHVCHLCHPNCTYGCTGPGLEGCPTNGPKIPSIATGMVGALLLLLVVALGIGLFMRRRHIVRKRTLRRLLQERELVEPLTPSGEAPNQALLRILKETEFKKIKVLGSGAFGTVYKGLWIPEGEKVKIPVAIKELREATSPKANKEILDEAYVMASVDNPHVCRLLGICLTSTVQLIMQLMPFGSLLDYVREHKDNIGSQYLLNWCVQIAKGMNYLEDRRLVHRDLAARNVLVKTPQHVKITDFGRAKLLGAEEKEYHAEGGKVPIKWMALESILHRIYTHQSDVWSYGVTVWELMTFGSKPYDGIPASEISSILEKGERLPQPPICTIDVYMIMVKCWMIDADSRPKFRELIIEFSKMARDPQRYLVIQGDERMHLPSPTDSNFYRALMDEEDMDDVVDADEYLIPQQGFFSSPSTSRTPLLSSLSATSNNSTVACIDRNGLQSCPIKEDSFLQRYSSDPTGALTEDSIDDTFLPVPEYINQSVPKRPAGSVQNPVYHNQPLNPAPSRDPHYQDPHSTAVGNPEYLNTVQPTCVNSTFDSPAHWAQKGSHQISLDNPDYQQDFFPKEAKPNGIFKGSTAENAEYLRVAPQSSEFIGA
Assay: EGFR degradation HTRF assay, BaF3-LTC cells
Format: cell-based
Conditions: BaF3-LTC cells; maximum percentage of inhibition (degradation)
# output: bare number, implied unit %

# molecule, unit-tag, Dmax (%) BaF3-LTC
measured = [
    ("CCOc1cc(N2CCC(N3CCN(C[C@H]4CCN(c5cccc6c5oc(=O)n6C5CCC(=O)NC5=O)C4)CC3)CC2)c(CC)cc1Nc1ncc(Br)c(Nc2ccc3c(=O)n(CC)ncc3c2P(C)(C)=O)n1 (some centres unmarked)", "%", 86.27),
    ("CCOc1cc(N2CCC(N3CCN(C(=O)[C@@H]4CCN(c5cccc6c5oc(=O)n6C5CCC(=O)NC5=O)C4)CC3)CC2)c(CC)cc1Nc1ncc(Br)c(Nc2ccc3nc(CC)ccc3c2P(C)(C)=O)n1 (some centres unmarked)", "%", 88.22),
    ("CCOc1cc(N2CCC(N3CCN(CCc4cc5oc(=O)n(C6CCC(=O)NC6=O)c5cc4F)CC3)CC2)c(CC)cc1Nc1ncc(Br)c(Nc2ccc3nc(CC)ncc3c2P(C)(C)=O)n1 (centres unmarked)", "%", 89.57),
    ("CCOc1cc(N2CCC(N3CCN(CCc4cccc5c4oc(=O)n5C4CCC(=O)NC4=O)CC3)CC2)c(CC)cc1Nc1ncc(Br)c(Nc2ccc3c(=O)n(CC)ncc3c2P(C)(C)=O)n1 (centres unmarked)", "%", 87.13),
    ("CCOc1cc(N2CCC(N3CCN(CCc4c(F)ccc5c4oc(=O)n5C4CCC(=O)NC4=O)CC3)CC2)c(CC)cc1Nc1ncc(Br)c(Nc2cc(F)c3nc(CC)ccc3c2P(C)(C)=O)n1 (centres unmarked)", "%", 80.74),
]

Task: Name the recorded Dmax (%) BaF3-LTC for CCOc1cc(N2CCC(N3CCN(CCCc4cc(F)cc5c4oc(=O)n5C4CCC(=O)NC4=O)CC3)CC2)c(CC)cc1Nc1ncc(Br)c(Nc2ccc3nc(CC)ncc3c2P(C)(C)=O)n1 (centres unmarked) .
Output: 91.31

Task: Name the recorded Dmax (%) BaF3-LTC for CCOc1cc(N2CCC(N3CCN(CCc4ccc5c(c4)oc(=O)n5C4CCC(=O)NC4=O)CC3)CC2)c(CC)cc1Nc1ncc(Br)c(Nc2ccc3nc(C)ccc3c2P(C)(C)=O)n1 (centres unmarked) .
Output: 95.58

Task: Name the recorded Dmax (%) BaF3-LTC for CCOc1cc(N2CCC(N3CCN(CCc4c(F)ccc5c4n(CC)c(=O)n5C4CCC(=O)NC4=O)CC3)CC2)c(CC)cc1Nc1ncc(Br)c(Nc2ccc3c(=O)n(CC)ncc3c2P(C)(C)=O)n1 (centres unmarked) .
Output: 91.42

###

Molecular target: EGFR L858R/T790M/C797S (BaF3-LTC cells) (Homo sapiens, UniProt P00533, C797S/L858R/T790M)
Construct: expressed in transfected cells; host or cells: BaF3
Experiment: EGFR degradation HTRF assay, BaF3-LTC cells
Assay type: cell-based
Details: BaF3-LTC, 16h treatment; read-out: LTC DC50
This listing pairs molecules with measured log10 of DC50.
Use the decimal logarithm of DC50 (nM).

Some molecules with recorded log10 of DC50:
# molecule, log10 of DC50
measured = [
    ("CCc1cc(Nc2ncc(Br)c(Nc3ccc4c(=O)n(C)ncc4c3P(C)(C)=O)n2)c(OC)cc1N1CCC(N2CCN(CCC3CCN(c4cc(F)c(C5CCC(=O)NC5=O)c(F)c4)CC3)CC2)CC1 (centres unmarked) [Example 270]", 1.38),
    ("CCc1cc(Nc2ncc(Br)c(Nc3ccc4nccnc4c3P(C)(C)=O)n2)c(OC)cc1N1CCC(N2CCN(CC3CN(c4ccc(C5CCC(=O)NC5=O)cc4)C3)CC2)CC1 (centres unmarked) [Example 231]", 1.40),
]

Task: Name the recorded log10 of DC50 for CCc1cc(Nc2ncc(Br)c(Nc3ccc4nccnc4c3P(C)(C)=O)n2)c(OC)cc1N1CCC(N2CCN(C(=O)[C@@H]3CCN(c4ccc5c(c4)C(=O)N(C4CCC(=O)NC4=O)C5=O)C3)CC2)CC1 (some centres unmarked) [Example 65] .
Output: 1.15

Task: Name the recorded log10 of DC50 for CCc1cc(Nc2ncc(Br)c(Nc3ccc4nccnc4c3P(C)(C)=O)n2)c(OC)cc1N1CCC(N2CCN(CCc3cc(Cl)c(C4CCC(=O)NC4=O)cc3F)CC2)CC1 (centres unmarked) [Example 166] .
Output: 1.69

Task: Name the recorded log10 of DC50 for CCc1cc(Nc2ncc(Br)c(Nc3ccc4nccnc4c3P(C)(C)=O)n2)c(OC)cc1N1CCC(N2CCN(CC3CN(c4ccc(C5CCC(=O)NC5=O)c(C#N)c4)C3)CC2)CC1 (centres unmarked) [Example 251] .
Output: 0.47
